The following compounds were reported with pKi values on Carbonic anhydrase 2 (Homo sapiens, UniProt P00918) in different studies.
# pKi: negative log10 of molar concentration; output just the value

Reference set (5 entries):
>>> measurement("Nc1c(Cl)cc(S(N)(=O)=O)cc1Br")
7.27
>>> measurement("NS(=O)(=O)c1ccc(NC(=S)NC(CC(=O)O)C(=O)O)cc1 (stereo unspecified)")
8.10
>>> measurement("NS(=O)(=O)OCC1c2ccccc2-c2ccccc21")
5.35
>>> measurement("CSCCC(/N=C(\\S)Nc1ccc(S(N)(=O)=O)cc1)C(=O)O (stereo unspecified)")
8.40
>>> measurement("COC(=O)CCNS(=O)(=O)NC12CC3CC(CC(C3)C1)C2")
5.30

Q) Which measured pKi value corresponds to NS(=O)(=O)c1ccc(C(=O)N[C@@H](Cc2ccccc2)C(=O)O)cc1 ?
A) 7.28

Q) And COc1cc2c(cc1OS(N)(=O)=O)NC(=O)N(Cc1cccc(OC)c1OC)C2 ?
A) 5.33

Q) What about this compound? NS(=O)(=O)c1ccc(CCn2c(=S)[nH]c3ccc(F)cc3c2=O)cc1
A) 7.91
